Where do these numbers come from? They come from PubChem BioAssay.

Test: cytosolic pH regulators acting via V-ATPase – S. cerevisiae, pHLuorin, HTS validation (AID 504600);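 also: plate controls were DMSO for no effect and reference compound for full effect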
Conditions: V-ATPase proton transport, at 10 µM, hits give high values
Active and inactive are the calls of the source. Rule as the data show it: active = response above about 15%; inactive = the rest. Peptide text beside a SMILES is read from it.
Would you mind telling me the reported response of each entry?

- Compound: "CC(=O)NC(CC(C)C)C(=O)NC(Cc1ccccc1)C(N)=O (stereo not drawn) (Ac-Leu-Phe-NH2; configuration not given here)"
  response: "-1.63% (inactive)"
- Compound: "COc1cc2cc(C(=O)O)[nH]c2c(OC)c1OC"
  response: "-0.34% (inactive)"
- Compound: "CCOC(=O)C1=C[C@]2(CC)CCCN3CCc4c(n1c1ccccc41)[C@@H]32"
  response: "4.61% (inactive)"
- Compound: "Cc1ccc(S(=O)(=O)Oc2ccccc2/C=N/N=C(N)N)cc1"
  response: "-0.49% (inactive)"
- Compound: "C#C[C@]1(O)CC[C@H]2[C@@H]3CCc4cc(OC5CCCC5)ccc4[C@H]3CC[C@@]21C"
  response: "6.88% (inactive)"

Batch request: response per item, same order as input.
1. O=C(O)CCCCCN=C1CCc2ccccc2N1
2. CC1=C(/C=C/C(C)=C/C=C/C(C)=C/C(=O)O)C(C)(C)CCC1
3. O=C(O)c1ccc(-c2ccc(O)c(F)c2)cc1
4. C=C1C2(C(=O)Nc3ccc(SC(F)F)cc3)CCC(C2)C1(C)C (stereo not given)
5. OCCC1CN(Cc2ccccc2-c2ccco2)CCN1C1CCCC1 (stereo not given)
6. O=C(Nc1ccc(C(=O)NC2CCCCC2)cc1)c1cccnc1

Solution:
1: -0.07% (inactive); 2: -0.05% (inactive); 3: 3.09% (inactive); 4: 1.62% (inactive); 5: 4.26% (inactive); 6: 1.36% (inactive)

Could you report response for every entry in the following list?
1. COc1ccc(C(=O)O)cc1F
2. COc1ccc([C@H]2[C@H](C(=O)OC(C)(C)C)N3N=Cc4ccccc4C3C23C(=O)c2ccccc2C3=O)cc1OC (stereo not given in full)
3. Cc1[nH]c2ccccc2c1/C=C/c1nc2ccccc2c(=O)n1CCO
4. COc1ccccc1C(=O)Nc1cc2cc(Br)ccc2oc1=O
5. CC(=O)Nc1ccccc1O

Solution:
-13.5% (inactive)
-3.19% (inactive)
-3.06% (inactive)
-0.54% (inactive)
0.98% (inactive)

List the reported response of each compound below.
1. Cc1ccc2[nH]c3c(c2c1)CCNC3=O
2. OCCOCCN1CCN(C(c2ccccc2)c2ccc(Cl)cc2)CC1 (stereo not given)
3. O=C(c1cccc2ccccc12)C1CCCN(C(=O)CCN2CCCO2)C1 (stereo not given)
4. CN1CCN(CC/C=C2/c3ccccc3Sc3ccc(S(=O)(=O)N(C)C)cc32)CC1
5. COc1ccc2nc(S(=O)Cc3ncc(C)c(OC)c3C)[nH]c2c1 (stereo not given)
6. CC(C)[C@H](NC(=O)[C@@H]1CSCN1C(=O)OC(C)(C)C)C(=O)NCC1CCC(C(=O)O)CC1 (stereo not given in full)

Solution:
1. -10.4% (inactive)
2. 1.14% (inactive)
3. 2.67% (inactive)
4. 11% (inactive)
5. 0.81% (inactive)
6. 3.84% (inactive)

Consider the following items and state reported response for each.
1. COc1ccc(C(=O)CC2OC(=O)c3c2ccc(OC)c3OC)cc1 (stereo not given)
2. Cc1c(OCC(F)(F)F)ccnc1CS(=O)c1nc2ccccc2[nH]1 (stereo not given)

Solution:
1: -4.39% (inactive); 2: -4.18% (inactive)
